Target: Histone deacetylase 3 (Homo sapiens, UniProt O15379)
Sequence (O15379 whole entry): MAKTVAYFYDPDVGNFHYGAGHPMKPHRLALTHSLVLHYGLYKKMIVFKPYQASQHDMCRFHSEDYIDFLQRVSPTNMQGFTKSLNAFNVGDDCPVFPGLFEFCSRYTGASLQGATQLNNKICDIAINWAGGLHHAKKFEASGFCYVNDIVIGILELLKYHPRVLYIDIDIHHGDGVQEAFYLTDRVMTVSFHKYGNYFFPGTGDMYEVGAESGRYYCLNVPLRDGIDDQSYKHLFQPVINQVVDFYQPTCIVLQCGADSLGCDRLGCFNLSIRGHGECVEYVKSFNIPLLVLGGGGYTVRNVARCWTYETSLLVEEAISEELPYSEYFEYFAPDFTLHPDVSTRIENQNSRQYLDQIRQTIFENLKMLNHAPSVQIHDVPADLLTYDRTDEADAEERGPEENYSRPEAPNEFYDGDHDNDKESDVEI
pIC50: −log10 of the molar value.
observationType: pIC50

* O=C(NO)[C@@H](Cc1ccccc1)n1nnc(-c2ccccc2)c1C#CC1CC1 | < 4.70

====

Target: Histone deacetylase 4 (Homo sapiens)
Sequence (P56524 whole entry): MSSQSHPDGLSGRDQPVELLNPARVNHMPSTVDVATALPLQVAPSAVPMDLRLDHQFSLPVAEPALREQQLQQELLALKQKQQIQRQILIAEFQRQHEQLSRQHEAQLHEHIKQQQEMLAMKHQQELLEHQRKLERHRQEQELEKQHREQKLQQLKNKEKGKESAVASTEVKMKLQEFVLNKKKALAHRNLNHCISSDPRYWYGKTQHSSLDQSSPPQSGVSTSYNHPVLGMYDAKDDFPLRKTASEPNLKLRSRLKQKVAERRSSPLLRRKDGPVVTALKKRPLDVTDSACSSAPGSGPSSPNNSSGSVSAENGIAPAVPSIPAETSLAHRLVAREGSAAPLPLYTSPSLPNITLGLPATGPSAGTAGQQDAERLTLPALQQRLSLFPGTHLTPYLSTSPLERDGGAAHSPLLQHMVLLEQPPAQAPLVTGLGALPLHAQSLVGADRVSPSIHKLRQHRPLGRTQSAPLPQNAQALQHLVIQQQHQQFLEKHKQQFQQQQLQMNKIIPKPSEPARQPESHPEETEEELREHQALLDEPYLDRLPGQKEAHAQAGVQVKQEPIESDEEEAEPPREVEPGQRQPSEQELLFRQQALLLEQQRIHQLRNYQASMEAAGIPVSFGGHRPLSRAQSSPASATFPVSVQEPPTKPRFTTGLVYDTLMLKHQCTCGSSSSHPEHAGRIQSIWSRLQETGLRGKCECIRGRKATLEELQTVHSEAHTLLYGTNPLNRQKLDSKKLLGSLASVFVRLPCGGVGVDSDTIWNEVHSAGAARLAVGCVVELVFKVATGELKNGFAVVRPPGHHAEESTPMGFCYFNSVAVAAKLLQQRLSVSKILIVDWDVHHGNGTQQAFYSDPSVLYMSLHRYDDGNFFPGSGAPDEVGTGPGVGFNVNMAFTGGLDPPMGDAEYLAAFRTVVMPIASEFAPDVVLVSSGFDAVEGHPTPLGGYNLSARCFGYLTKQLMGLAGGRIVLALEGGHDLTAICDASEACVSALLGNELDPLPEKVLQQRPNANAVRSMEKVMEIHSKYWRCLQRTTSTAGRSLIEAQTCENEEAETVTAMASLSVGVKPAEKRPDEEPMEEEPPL
Experiment: Inhibition of HDAC4 (unknown origin)
observationType: IC50 (nM)

* O=C(/C=C/c1cccc(S(=O)(=O)Nc2ccccc2)c1)NO [BELINOSTAT] | 15

====

Below, each entry is listed with its recorded IC50.
Biological target: Histone deacetylase 8 (Homo sapiens, UniProt Q9BY41)
Sequence (Q9BY41 whole entry): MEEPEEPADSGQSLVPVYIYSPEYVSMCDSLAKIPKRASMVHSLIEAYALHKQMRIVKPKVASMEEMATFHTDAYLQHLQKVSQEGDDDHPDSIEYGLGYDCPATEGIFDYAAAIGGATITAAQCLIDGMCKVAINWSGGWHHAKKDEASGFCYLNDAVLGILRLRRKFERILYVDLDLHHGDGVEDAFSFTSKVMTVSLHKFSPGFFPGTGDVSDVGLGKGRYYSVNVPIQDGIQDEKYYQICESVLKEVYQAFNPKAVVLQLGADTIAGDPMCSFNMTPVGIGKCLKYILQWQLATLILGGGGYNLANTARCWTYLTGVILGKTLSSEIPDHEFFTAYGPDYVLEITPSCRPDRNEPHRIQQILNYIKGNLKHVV
Assay: Inhibition of human recombinant HDAC8 using AMC-K(Ac)GL as substrate by fluorescence based assay
Square brackets hold non-standard residues; d marks the D form. Peptide text beside a SMILES is read from it. * marks the point of attachment. Asu = N[C@@H](CCCCCC(=O)O)C(=O)O; β3hL = CC(C)C[C@H](N)CC(=O)O; NHOH = ON*
observationType: IC50 (nM)

• O=C(NO)c1cccc(-c2nc(CSc3ccccc3)no2)c1 = 120
• CC(C)C[C@H]1CC(=O)N[C@@H](C)C(=O)N[C@@H](CCCCCC(=O)NO)C(=O)N[C@@H](Cc2c[nH]c3ccccc23)C(=O)N1 (cyclo([Asu](NHOH)W[β3hL]A)) = 120

Each recorded value in this set is attributed to ChEMBL document CHEMBL5625174.
